Test: chemical genetic growth profiling, strain panel (AID 1159580);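 note: tested at 20 µM; growth read once vehicle control cultures reached saturation at 30 °C; 1 = growth at the plate median or of vehicle wells; lower values mean less growth of the strain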
Conditions: S. cerevisiae deletion strains, growth OD, locus YLR403W, strain SFP1, hits give low values
Screen size: about 5,500 compounds; about 2,000 (36%) were called active. Inconclusive results (about 18%) are left out. The list shows a part of the results.
Quantity: normalized growth
API note: the answer field is a bare number with no unit suffix.

Example results:
# Compound, normalized growth
data = [
    ("COc1cc(Cl)c(NS(=O)(=O)c2cc(Br)c(Br)s2)c(OC)c1", 0.922),
    ("CCc1cc2c(cc1-c1csc(C/C(N)=N\\O)n1)C(C)(C)CCC2(C)C", 0.784),
    ("N=C(N)SCc1nc(-c2ccc(Cl)cc2)no1", 0.911),
    ("CCCCCc1ccc(S(=O)(=O)Nc2ccc3c(c2)C(=O)OC3)cc1", 0.938),
    ("COc1cc(C(=O)Oc2c(Cl)cc(Cl)cc2C=Nc2ccc([N+](=O)[O-])cc2C#N)cc(OC)c1OC", 0.439),
    ("COc1cc(N=Cc2cc(Cl)cc(Cl)c2OS(=O)(=O)c2ccc(C)cc2)c(OC)cc1Cl", 0.911),
    ("O=C(Nc1ccc(Cl)cc1Cl)c1cnccc1C(F)(F)F", 0.967),
    ("CCCCCCCC1CCC/C1=N/OC(=O)c1cccs1 (stereo unspecified)", 0.945),
]

Exercise: Item under review: `COCCOc1ccccc1NC(=S)SCCSC(=S)Nc1ccccc1OCCOC` . Reported normalized growth?
Key: 0.944

Exercise: Item under review: `CSc1cccc(N2C(=O)CC(c3c(Cl)cccc3Cl)CC2=O)c1` . Reported normalized growth?
Key: 0.946

Exercise: Item under review: `CCOC(=O)NC(=S)NC12CC3CC(CC(C3)C1)C2` . Reported normalized growth?
Key: 0.851

====

Experiment: chemical genetic growth profiling, strain panel (AID 1159580)
Details: S. cerevisiae deletion strains, growth OD, locus YLR058C, strain SHM2, hits give low values
The whole screen tested about 5,500 compounds, of which about 2,000 (36%) were called active. Not shown: some 18% with an inconclusive outcome. Some of the results follow.
normalized growth values, listed per item
API note: the answer field is a bare number with no unit suffix.

# Compound, normalized growth
data = [
    ("C[C@@H]1CC2C3CCC4=CC(=O)C=C[C@]4(C)[C@@]3(F)[C@@H](O)C[C@]2(C)[C@@]1(O)C(=O)COP(=O)(O)O (stereo partly specified)", 1.01),
]

Exercise: Item under review: `Nc1ccc(S(=O)(=O)Nc2nccs2)cc1` . Reported normalized growth?
Key: 1.01

Exercise: Item under review: `CN=C1CN(O)C(c2ccccc2)=c2cc(Cl)ccc2=N1` . Reported normalized growth?
Key: 0.983

Exercise: Item under review: CC1CC2C(C(O)CC3(C)C2CCC3(O)C(=O)COC(=O)CCC(=O)O)C2(C)C=CC(=O)C=C12 (stereo unspecified) . Reported normalized growth?
Key: 0.999

Exercise: Item under review: COc1cc(C)c2c(c1C=O)Oc1c(c(C)c(O)c3c1C(O)OC3=O)OC2=O (stereo unspecified) . Reported normalized growth?
Key: 0.966

Exercise: Item under review: `CC[C@]12CCCN3CCc4c(n(c5ccccc45)[C@](O)(C(=O)OC)C1)[C@@H]32` . Reported normalized growth?
Key: 0.976

====

normalized growth values, listed per item
Test: chemical genetic growth profiling, strain panel (AID 1159580)
Conditions: S. cerevisiae deletion strains, growth OD, locus YDR069C, strain doa4, hits give low values
The whole screen tested about 5,500 compounds, of which about 2,000 (36%) were called active. Inconclusive results (about 18%) are left out. Some of the results follow.
API note: the answer field is a bare number with no unit suffix.

Example results:
# Compound, normalized growth
rows = [
    ("CC(=O)O[C@H]1C[C@@H](OC(C)=O)C(C)(C)C2C[C@@H](OC(C)=O)[C@]3(C)C(CC[C@@]4(C)[C@H](c5ccoc5)C(=O)[C@H]5O[C@]543)[C@]21C (stereo partly drawn)", 0.993),
    ("CC(=O)O[C@H]1CC[C@@]2(C)C(=CCC3C2CC[C@@]2(C)C3CC[C@@H]2C(C)CCCC(C)C)C1 (stereo partly drawn)", 0.987),
]

Now examine the next entry.
Exercise: Item under review: CC1(C)O[C@@H]2CC3C4CCC5=CC(=O)C=C[C@]5(C)C4[C@@H](O)C[C@]3(C)[C@]2(C(=O)CO)O1 (stereo partly drawn) . Reported normalized growth?
Key: 1

====

Experiment: chemical genetic growth profiling, strain panel (AID 1159580)
Conditions: S. cerevisiae deletion strains, growth OD, locus YLR058C, strain SHM2, hits give low values
Hit rate of the full screen: of about 5,500 compounds, about 2,000 (36%) were called active. Another 18% or so got no clear call; they are omitted. The list shows a part of the results.
Quantity: normalized growth
API note: the answer field is a bare number with no unit suffix.

Example results:
# Compound, Endpoint Result
rows = [
    ("COc1cc(/C=C/C(=O)O)ccc1O", 1.01),
    ("CC(=O)O[C@H]1C[C@@H](OC(C)=O)C(C)(C)C2C[C@@H](OC(C)=O)[C@]3(C)C(CC[C@@]4(C)[C@H](c5ccoc5)C(=O)[C@H]5O[C@]543)[C@]21C (some centres not stated)", 1.01),
    ("CC(=O)OCC(=O)[C@@]12OC(C)(C)O[C@@H]1CC1C3C[C@H](F)C4=CC(=O)C=C[C@]4(C)[C@@]3(F)[C@@H](O)C[C@@]12C (some centres not stated)", 1.01),
]

Exercise: Item under review: `CO[C@@H]1[C@@H](O[C@@H]2O[C@H](C)[C@@H](O[C@H]3C[C@@](C)(O)[C@H](O)[C@H](C)O3)[C@H](N(C)C)[C@H]2O)[C@@H](CC=O)C[C@@H](C)[C@@H](O[C@H]2CC[C@H](N(C)C)[C@@H](C)O2)/C=C/C=C/C[C@H](C)OC(=O)C[C@H]1O` . Reported normalized growth?
Key: 1.02

Exercise: Item under review: CCC(CCC(C)C1CCC2C3CC=C4C[C@@H](OC(C)=O)CC[C@]4(C)C3CC[C@]12C)C(C)C (some centres not stated) . Reported normalized growth?
Key: 1

Exercise: Item under review: `C[C@H](COc1ccccc1)N[C@H](C)[C@H](O)c1ccc(O)cc1` . Reported normalized growth?
Key: 0.987

Exercise: Item under review: `COc1cc(/C=C/C(=O)O)cc(OC)c1OC` . Reported normalized growth?
Key: 1.02

====

Assay: chemical genetic growth profiling, strain panel (AID 1159580);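 note: tested at 20 µM; growth read once vehicle control cultures reached saturation at 30 °C; 1 = growth at the plate median or of vehicle wells; lower values mean less growth of the strain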
Settings: S. cerevisiae deletion strains, growth OD, locus YOL006C, strain TOP1, hits give low values
In all, about 5,500 compounds went through this assay and about 2,000 (36%) were called active. Roughly 18% stayed inconclusive and do not appear here. The list shows a part of the results.
Quantity: normalized growth

Example results:
# Compound, normalized growth
rows = [
    ("BrC12CC3CC(CC(C3)C1)C2", "1.01 (inactive)"),
    ("O=C(O)c1cc(=O)c(O)c2c(O)c(O)ccc2c1", "0.984 (inactive)"),
    ("Nc1nc(N)c2nc(CNc3ccc(C(=O)NC(CCC(=O)O)C(=O)O)cc3)cnc2n1 (centres undefined)", "0.981 (inactive)"),
]

Now examine the next entry.
Exercise: Item under review: `O=C1N=C(O)CN1/N=C\c1ccc(-c2ccc([N+](=O)[O-])cc2)o1` . Reported normalized growth?
Key: 1.02 (inactive)

====

normalized growth values, listed per item
Experiment: chemical genetic growth profiling, strain panel (AID 1159580);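 note: tested at 20 µM; growth read once vehicle control cultures reached saturation at 30 °C; 1 = growth at the plate median or of vehicle wells; lower values mean less growth of the strain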
Details: S. cerevisiae deletion strains, growth OD, locus YGR078C, strain PAC10, hits give low values
About 2,000 (36%) of roughly 5,500 compounds were called active. About 18% were inconclusive and are not listed. The list shows a part of the results.
API note: the answer field is a bare number with no unit suffix.

Exercise: Item under review: `CCn1cc(C(=O)O)c(=O)c2ccc(Cc3ccccc3)nc21` . Reported normalized growth?
Key: 0.971

Exercise: Item under review: `O=C1CN(/N=C\c2ccc([N+](=O)[O-])o2)C(=O)N1` . Reported normalized growth?
Key: 0.975

Exercise: Item under review: `CCOC(=O)c1c(C)csc1N` . Reported normalized growth?
Key: 0.983

Exercise: Item under review: `Oc1ccc(/C=C/c2cc(O)cc(O)c2)cc1` . Reported normalized growth?
Key: 0.959

====

Assay: chemical genetic growth profiling, strain panel (AID 1159580);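 note: tested at 20 µM; growth read once vehicle control cultures reached saturation at 30 °C; 1 = growth at the plate median or of vehicle wells; lower values mean less growth of the strain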
Settings: S. cerevisiae deletion strains, growth OD, locus YOR136W, strain idh2, hits give low values
The campaign covered roughly 5,500 compounds. About 2,000 (36%) were called active. Roughly 18% stayed inconclusive and do not appear here. This is one part of the list.
Quantity: normalized growth
API note: the answer field is a bare number with no unit suffix.

# Compound, normalized growth
data = [
    ("COc1ccc(-c2cc(C(F)F)nn2-c2ccc(S(N)(=O)=O)cc2)cc1F", 1.02),
    ("O=c1ccn([C@@H]2O[C@H](COP(=O)(O)OP(=O)(O)OP(=O)(O)O)[C@@H](O)[C@H]2O)c(=O)[nH]1", 0.997),
    ("CC[C@]12CCCN3CCc4c(n(c5ccccc45)[C@](O)(C(=O)OC)C1)[C@@H]32", 0.969),
    ("CC1(C)CC2C1CCC1(C)OC1CCC2(C)O (stereo not drawn)", 1),
    ("COc1c(C(=O)O)ccc2c1CCC(C)(C)O2", 0.993),
    ("NC(=O)N/N=C\\c1ccc([N+](=O)[O-])o1", 0.984),
    ("CCOP(=S)(OCC)SCSP(=S)(OCC)OCC", 0.988),
    ("CCOC(=O)C1=C[C@]2(CC)CCCN3CCc4c(n1c1ccccc41)[C@@H]32", 0.978),
]

Exercise: Item under review: `COc1cc(/C=C/C(=O)O)cc(OC)c1OC` . Reported normalized growth?
Key: 1.01

Exercise: Item under review: CC(C)C1=CC2=CCC3[C@](C)(CCC[C@]3(C)C(=O)O)C2CC1 (stereo partly drawn) . Reported normalized growth?
Key: 0.999

Exercise: Item under review: `CCn1cc(C(=O)O)c(=O)c2ccc(C)nc21` . Reported normalized growth?
Key: 0.969

Exercise: Item under review: `Nc1nccs1` . Reported normalized growth?
Key: 0.988

Exercise: Item under review: `COc1cc(/C=C/C(=O)O)ccc1O` . Reported normalized growth?
Key: 0.974

Exercise: Item under review: `CS(=O)(=O)OCCCCOS(C)(=O)=O` . Reported normalized growth?
Key: 0.977

Exercise: Item under review: `CC12CCC(CC1)C(C)(C)O2` . Reported normalized growth?
Key: 1

Exercise: Item under review: CC(Cc1ccc(O)c(O)c1)(NN)C(=O)O (stereo not drawn) . Reported normalized growth?
Key: 1.01

Exercise: Item under review: `NCc1ccc(S(N)(=O)=O)cc1` . Reported normalized growth?
Key: 0.992

Exercise: Item under review: `CCOC(=O)c1ccc(N)cc1` . Reported normalized growth?
Key: 0.98
